Assay: log P determination by HPLC on reverse-phase column (EEC Directive 79/831 Annex V.A8)
Format: physicochemical
Conditions: HPLC on reverse-phase column
Known logP of a selection of compounds
measured-quantity: logP

>>> recorded_measurement("Cc1cccc(C(=O)N[C@@H](C)CS(C)(=O)=O)c1NC(=O)c1cc(Cn2nc(C(F)(F)F)nc2C(F)(F)F)nn1-c1ncccc1Cl")
2.92
>>> recorded_measurement("Cc1cc(Br)cc(C(=O)NCC#N)c1NC(=O)c1cc(Cn2nc(C(F)(F)F)cc2C(F)(F)F)nn1-c1ncccc1Cl")
3.65
>>> recorded_measurement("Cc1cc(Br)cc(C(=O)NCC#N)c1NC(=O)c1cc(Cn2cc(C(F)(F)C(F)(F)F)c(C(F)(F)C(F)(F)F)n2)nn1-c1ncccc1Cl")
4.28
